Origin of the recorded values: patent US9604945B2

Assay: Brain drug concentration by different routes of administration
Assay type: in vivo, C57BL/6 mice
Conditions: C57BL/6, mouse, brain, intraperitoneal; 10 mg/kg (IP), time 15 mins
measured parameter: concentration at 15 min (ng/mL)

[[record]]
substance_smiles = "Cc1ccc(C[n+]2[cH-]/c(=N\\C(=O)Nc3ccccc3)on2)cc1"
recorded_measurement = 374


* * *

Target: dopamine transporter (DAT) (Cavia porcellus, UniProt H0WCX4)
Sequence (H0WCX4 1-619): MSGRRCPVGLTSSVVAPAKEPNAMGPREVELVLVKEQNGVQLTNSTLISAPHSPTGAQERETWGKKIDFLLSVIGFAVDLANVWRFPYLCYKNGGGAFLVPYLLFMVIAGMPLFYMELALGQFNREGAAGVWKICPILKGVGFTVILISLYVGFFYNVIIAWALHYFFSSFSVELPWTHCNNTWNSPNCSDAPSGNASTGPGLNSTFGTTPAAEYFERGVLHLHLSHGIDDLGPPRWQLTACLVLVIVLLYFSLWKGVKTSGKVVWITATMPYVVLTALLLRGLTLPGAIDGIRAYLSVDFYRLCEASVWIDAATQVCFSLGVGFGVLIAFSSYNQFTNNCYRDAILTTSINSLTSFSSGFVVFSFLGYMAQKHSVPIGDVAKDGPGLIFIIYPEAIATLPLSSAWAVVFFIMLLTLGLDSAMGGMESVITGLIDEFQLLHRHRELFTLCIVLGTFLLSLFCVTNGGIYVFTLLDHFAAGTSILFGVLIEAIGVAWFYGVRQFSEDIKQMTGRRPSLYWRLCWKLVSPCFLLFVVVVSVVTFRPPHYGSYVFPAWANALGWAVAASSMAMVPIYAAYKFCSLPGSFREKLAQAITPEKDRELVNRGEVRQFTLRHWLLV
Assay: Dopamine transporter binding assay [3H]WIN 35,428
Parameters: species or system Guinea Pig
Details: read-out: Ki DAT
measured parameter: Ki (nM)

[[record]]
substance_smiles = "O=C([N-]c1c[n+](Cc2ccc(C(=O)O)cc2)no1)Nc1ccccc1"
unit = "nM"
recorded_measurement = 2.7


* * *

Assay: Plasma drug concentration by different routes of administration
Format: in vivo, C57BL/6 mice
Settings: C57BL/6, mouse, plasma, intraperitoneal; 10 mg/kg (IP), time 240 mins
measured parameter: concentration at 240 min (ng/mL)

[[record]]
substance_smiles = "Cc1ccc(C[n+]2[cH-]/c(=N\\C(=O)Nc3ccccc3)on2)cc1"
measured_parameter = "concentration at 240 min"
recorded_measurement = 34


* * *

Test: Plasma drug concentration by different routes of administration
Type: in vivo, C57BL/6 mice
Conditions: C57BL/6, mouse, plasma, intraperitoneal; 10 mg/kg (IP), time 15 mins
measured parameter: concentration at 15 min

[[record]]
substance_smiles = "Cc1ccc(C[n+]2[cH-]/c(=N\\C(=O)Nc3ccccc3)on2)cc1"
recorded_measurement = "316 ng/mL"


* * *

Assay: Brain drug concentration by different routes of administration
Format: in vivo, C57BL/6 mice
Conditions: C57BL/6, mouse, brain, intraperitoneal; 10 mg/kg (IP), time 60 mins
measured parameter: concentration at 60 min (ng/mL)

[[record]]
compound = "Cc1ccc(C[n+]2[cH-]/c(=N\\C(=O)Nc3ccccc3)on2)cc1 [Example 3]"
measured_parameter = "concentration at 60 min"
recorded_measurement = 190


* * *

Experiment: Plasma drug concentration by different routes of administration
Assay type: in vivo, C57BL/6 mice
Settings: C57BL/6, mouse, plasma; 10 mg/kg (IV), time 15 mins
Experimental: The following materials and methods are provided to facilitate the practice of Example 9, in which drug concentration in certain biological samples were assessed using different routes of administration. Parameters Used in Dosing and Drug Administration of the Compound of Example 3: Adult C57BL/6 mice (preferred 16 weeks old). Three mice per time point. If all three routes are conducted in same day, one group of pre-dose is efficient. […]
measured parameter: concentration at 15 min (ng/mL)

[[record]]
compound = "Cc1ccc(C[n+]2[cH-]/c(=N\\C(=O)Nc3ccccc3)on2)cc1 [Example 3]"
recorded_measurement = 2110


* * *

Experiment: Brain drug concentration by different routes of administration
Type: in vivo, C57BL/6 mice
Settings: C57BL/6, mouse, brain, intraperitoneal; 10 mg/kg (IP), time 480 mins
measured parameter: concentration at 480 min

[[record]]
substance_smiles = "Cc1ccc(C[n+]2[cH-]/c(=N\\C(=O)Nc3ccccc3)on2)cc1"
measured_parameter = "concentration at 480 min"
recorded_measurement = "123 ng/mL"


* * *

Biological target: Norepinephrine Transporter (Human Recombinant) (Homo sapiens (Human))
Assay: Norepinephrine transporter (human recombinant) binding assay, [3H]-Nisoxetine
Settings: read-out: INH at 10 μM NET
molecules and their reported inhibition at 10 µM
measured parameter: inhibition at 10 µM (%)

[[record]]
molecule = "O=C(/N=c1\\[cH-][n+](Cc2ccccc2)no1)Nc1ccccc1 [Example 1, N-phenylcarbamoyl-3-(benzyl)-sydonimine]"
tested_target = "Norepinephrine Transporter (Human Recombinant) (Homo sapiens (Human))"
unit = "%"
recorded_measurement = 0

[[record]]
molecule = "O=C(/N=c1\\[cH-][n+](CCCc2ccccc2)no1)Nc1ccccc1 [Example 6]"
tested_target = "Norepinephrine Transporter (Human Recombinant) (Homo sapiens (Human))"
unit = "%"
recorded_measurement = 1.44

[[record]]
molecule = "O=C(/N=c1\\[cH-][n+](CCc2ccccc2)no1)Nc1ccc(Cl)c(Cl)c1 [Example 4]"
tested_target = "Norepinephrine Transporter (Human Recombinant) (Homo sapiens (Human))"
unit = "%"
recorded_measurement = 2

[[record]]
molecule = "O=C(/N=c1\\[cH-][n+](Cc2ccc(F)cc2)no1)Nc1ccccc1 [Example 7]"
tested_target = "Norepinephrine Transporter (Human Recombinant) (Homo sapiens (Human))"
unit = "%"
recorded_measurement = 15

[[record]]
molecule = "O=C(/N=c1\\[cH-][n+](CCc2ccc([N+](=O)[O-])cc2)no1)Nc1ccc([N+](=O)[O-])c([N+](=O)[O-])c1 [Example 5]"
tested_target = "Norepinephrine Transporter (Human Recombinant) (Homo sapiens (Human))"
unit = "%"
recorded_measurement = 4

[[record]]
molecule = "Cc1ccc(C[n+]2[cH-]/c(=N\\C(=O)Nc3ccccc3)on2)cc1 [Example 3]"
tested_target = "Norepinephrine Transporter (Human Recombinant) (Homo sapiens (Human))"
unit = "%"
recorded_measurement = 14


* * *

Test: Plasma drug concentration by different routes of administration
Type: in vivo, C57BL/6 mice
Settings: C57BL/6, mouse, plasma; 10 mg/kg (PO), time 480 mins
measured parameter: concentration at 480 min

[[record]]
substance_smiles = "Cc1ccc(C[n+]2[cH-]/c(=N\\C(=O)Nc3ccccc3)on2)cc1"
measured_parameter = "concentration at 480 min"
recorded_measurement = "0.0143 µg/mL"


* * *

Test: Plasma drug concentration by different routes of administration
Format: in vivo, C57BL/6 mice
Conditions: C57BL/6, mouse, plasma; 30 mg/kg (PO), time 120 mins
Experimental: The following materials and methods are provided to facilitate the practice of Example 9, in which drug concentration in certain biological samples were assessed using different routes of administration. Parameters Used in Dosing and Drug Administration of the Compound of Example 3: Adult C57BL/6 mice (preferred 16 weeks old). Three mice per time point. If all three routes are conducted in same day, one group of pre-dose is efficient. […]
measured parameter: concentration at 120 min

[[record]]
compound = "Cc1ccc(C[n+]2[cH-]/c(=N\\C(=O)Nc3ccccc3)on2)cc1 [Example 3]"
measured_parameter = "concentration at 120 min"
recorded_measurement = "41.9 ng/mL"


* * *

Assay: Plasma drug concentration by different routes of administration
Format: in vivo, C57BL/6 mice
Settings: C57BL/6, mouse, plasma; 30 mg/kg (PO), time 240 mins
Procedure: The following materials and methods are provided to facilitate the practice of Example 9, in which drug concentration in certain biological samples were assessed using different routes of administration. Parameters Used in Dosing and Drug Administration of the Compound of Example 3: Adult C57BL/6 mice (preferred 16 weeks old). Three mice per time point. If all three routes are conducted in same day, one group of pre-dose is efficient. […]
measured parameter: concentration at 240 min (ng/mL)

[[record]]
compound = "Cc1ccc(C[n+]2[cH-]/c(=N\\C(=O)Nc3ccccc3)on2)cc1 [Example 3]"
recorded_measurement = 48.5


* * *

Target: UniProt H0WCX4
Experiment: Dopamine transporter binding assay [3H]WIN 35,428
Set-up: species or system Guinea Pig
pKi: −log10 of the molar value.
compounds and their reported pKi
measured parameter: pKi

[[record]]
compound = "O=C(/N=c1\\[cH-][n+](Cc2ccc(F)cc2)no1)Nc1ccccc1 [Example 7]"
measured_parameter = "pKi"
recorded_measurement = 9.34

[[record]]
compound = "Cc1ccc(C[n+]2[cH-]/c(=N\\C(=O)Nc3ccccc3)on2)cc1 [Example 3]"
measured_parameter = "pKi"
recorded_measurement = 9.72

[[record]]
compound = "O=C(/N=c1\\[cH-][n+](CCc2ccc([N+](=O)[O-])cc2)no1)Nc1ccc([N+](=O)[O-])c([N+](=O)[O-])c1 [Example 5]"
measured_parameter = "pKi"
recorded_measurement = 7.00

[[record]]
compound = "O=C(/N=c1\\[cH-][n+](CCc2ccccc2)no1)Nc1ccc(Cl)c(Cl)c1 [Example 4]"
measured_parameter = "pKi"
recorded_measurement = 7.40

[[record]]
compound = "O=C(/N=c1\\[cH-][n+](Cc2ccccc2)no1)Nc1ccccc1 [Example 1, N-phenylcarbamoyl-3-(benzyl)-sydonimine]"
measured_parameter = "pKi"
recorded_measurement = 7.44

[[record]]
compound = "O=C(/N=c1\\[cH-][n+](CCCc2ccccc2)no1)Nc1ccccc1 [Example 6]"
measured_parameter = "pKi"
recorded_measurement = 7.60


* * *

Assay: Plasma drug concentration by different routes of administration
Type: in vivo, C57BL/6 mice
Settings: C57BL/6, mouse, plasma, intraperitoneal; 10 mg/kg (IP), time 5 mins
measured parameter: concentration at 5 min (µg/mL)

[[record]]
substance_smiles = "Cc1ccc(C[n+]2[cH-]/c(=N\\C(=O)Nc3ccccc3)on2)cc1"
unit = "µg/mL"
recorded_measurement = 0.973


* * *

Test: Brain drug concentration by different routes of administration
Format: in vivo, C57BL/6 mice
Details: C57BL/6, mouse, brain; 30 mg/kg (PO), time 240 mins
measured parameter: concentration at 240 min

[[record]]
molecule = "Cc1ccc(C[n+]2[cH-]/c(=N\\C(=O)Nc3ccccc3)on2)cc1 [Example 3]"
recorded_measurement = "183 ng/mL"

